target: pooled human IgG
Endpoint Name: Enzyme Activity Endpoint Assay: IgG

| Protein | Test Value |
| --- | --- |
| PRT-597 (protein) MANQEIRYSEETPSTITSVWTKGVTPPTDFIQNEDVLHAPYIANQGWYDITKTFNGKDDLLCGAATAGNMLHWWFDQNKEQIENYLKKHPEKQKINFNGEQMFDVKEAIDTKDSQTDSALFEYFKDKAFPYLSTKHLGVFPDHVIDMFINGYRLSLTNHGPTPVKRGTKDPRGGIFDAVFTRGDQSKLLTSRHDFKEKTLNEISDLIKQELTEGKALGLSHTYANVRINHVINLWGADFNANGNLEAIYVTDSDSNASIGMKKYYVGVNSAGKVAISAKEIEGDNIGAQVLGLFTLSTGQDIWNQTNLEHHHHHH | 0 ng/µL |
| PRT-540 (protein) MANQEIRYSKNENPNVTIKWVHGIGEPTQAEKEKIEFYWYETNTTKFFNNRKVTHLGDSNQCWAKTASNMLHWWFVQNKENINKYIEKKNITGKINFNGEQMFDVKEGIDDNQEKEKSYIANTFRTKKAHNLSTKHKGDYIINGLAWYLYGLNNFKNAHGPTPVKKKPKFYGPALFKDVFNRGDGNTPIIEETDFKEYTKKEFEDTLSEALDSKKAIGINIYGSNVDYGHAITLWGAAFDEDENIIAIYVVDNNFKFENRIFPYGIWYEKEGRPYLFNYEINSFVKNRYVGEITTLDKGEAQWQETNLEHHHHHH | 1490 ng/µL |
